EXPERIMENT: growth inhibitors of tim10-1 mutant yeast, primary screen, luminescence, uHTS (AID 463190);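 further: mutant grown at 25 °C; 0% = DMSO wells with yeast and 100% = wells holding no yeast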
REPORTED CONDITIONS: S. cerevisiae tim10-1 ts strain growth, BacTiter-Glo, 24 h; at 20 µM; hits give high values
Hit rate of the full screen: of about 330,000 compounds, about 7,300 (2.2%) were called active. This excerpt belongs to a sample that is enriched for actives.
QUANTITY KIND: inhibition (%)
# number only, unit % dropped from output

In the examples that follow, each entry is paired with its recorded inhibition.
COc1ccccc1Nc1ncnc2c1oc1ccccc12; 3.5
O=C(Nc1ccccc1)c1ccc2c(c1)OCCCO2; 5.55
CCOC(=O)c1nnn(-c2nonc2-n2cccc2)c1CN1CCC(C(=O)OCC)CC1; 31.9
O=[N+]([O-])c1ccc(N/N=C/c2ccccc2)cc1; 40.7
COc1ccc(C(=O)OCC(=O)c2ccc(Cl)s2)c(OC)c1OC; 6.36

Here is the next item to consider.
Query: So what does the record say about inhibition for O=C(Nc1ccc(-n2cccn2)cc1)C1CCN(Cc2ccsc2)CC1 ?
Result: -13.1

Data credit: PubChem BioAssay AID463190
